- target system: Cytochrome P450 2C9 (Homo sapiens, UniProt P11712)
- Sequence (P11712 whole entry): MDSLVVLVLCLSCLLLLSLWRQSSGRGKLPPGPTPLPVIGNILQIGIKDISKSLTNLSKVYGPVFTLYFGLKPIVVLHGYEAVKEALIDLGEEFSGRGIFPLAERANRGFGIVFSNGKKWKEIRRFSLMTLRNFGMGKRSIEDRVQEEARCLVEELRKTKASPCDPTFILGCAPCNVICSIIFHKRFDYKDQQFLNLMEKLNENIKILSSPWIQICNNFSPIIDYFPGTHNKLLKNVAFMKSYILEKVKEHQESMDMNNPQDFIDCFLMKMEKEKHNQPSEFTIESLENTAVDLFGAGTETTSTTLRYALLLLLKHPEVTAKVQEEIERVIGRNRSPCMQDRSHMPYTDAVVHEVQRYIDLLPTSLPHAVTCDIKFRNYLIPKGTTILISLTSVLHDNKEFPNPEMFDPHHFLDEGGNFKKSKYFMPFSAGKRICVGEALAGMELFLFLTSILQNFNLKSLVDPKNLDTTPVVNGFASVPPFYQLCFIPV
pIC50: −log10 of the molar value.
outcome measure: pIC50

Input: Returns the measured pIC50 for the input compound. Input: O=C1N(c2ccc(F)cc2)CCc2nc(COc3ccccc3)cn21
Output: < 4.70

* * *

- target system: Metabotropic glutamate receptor 5 (Rattus norvegicus)
- Sequence (P31424 whole entry): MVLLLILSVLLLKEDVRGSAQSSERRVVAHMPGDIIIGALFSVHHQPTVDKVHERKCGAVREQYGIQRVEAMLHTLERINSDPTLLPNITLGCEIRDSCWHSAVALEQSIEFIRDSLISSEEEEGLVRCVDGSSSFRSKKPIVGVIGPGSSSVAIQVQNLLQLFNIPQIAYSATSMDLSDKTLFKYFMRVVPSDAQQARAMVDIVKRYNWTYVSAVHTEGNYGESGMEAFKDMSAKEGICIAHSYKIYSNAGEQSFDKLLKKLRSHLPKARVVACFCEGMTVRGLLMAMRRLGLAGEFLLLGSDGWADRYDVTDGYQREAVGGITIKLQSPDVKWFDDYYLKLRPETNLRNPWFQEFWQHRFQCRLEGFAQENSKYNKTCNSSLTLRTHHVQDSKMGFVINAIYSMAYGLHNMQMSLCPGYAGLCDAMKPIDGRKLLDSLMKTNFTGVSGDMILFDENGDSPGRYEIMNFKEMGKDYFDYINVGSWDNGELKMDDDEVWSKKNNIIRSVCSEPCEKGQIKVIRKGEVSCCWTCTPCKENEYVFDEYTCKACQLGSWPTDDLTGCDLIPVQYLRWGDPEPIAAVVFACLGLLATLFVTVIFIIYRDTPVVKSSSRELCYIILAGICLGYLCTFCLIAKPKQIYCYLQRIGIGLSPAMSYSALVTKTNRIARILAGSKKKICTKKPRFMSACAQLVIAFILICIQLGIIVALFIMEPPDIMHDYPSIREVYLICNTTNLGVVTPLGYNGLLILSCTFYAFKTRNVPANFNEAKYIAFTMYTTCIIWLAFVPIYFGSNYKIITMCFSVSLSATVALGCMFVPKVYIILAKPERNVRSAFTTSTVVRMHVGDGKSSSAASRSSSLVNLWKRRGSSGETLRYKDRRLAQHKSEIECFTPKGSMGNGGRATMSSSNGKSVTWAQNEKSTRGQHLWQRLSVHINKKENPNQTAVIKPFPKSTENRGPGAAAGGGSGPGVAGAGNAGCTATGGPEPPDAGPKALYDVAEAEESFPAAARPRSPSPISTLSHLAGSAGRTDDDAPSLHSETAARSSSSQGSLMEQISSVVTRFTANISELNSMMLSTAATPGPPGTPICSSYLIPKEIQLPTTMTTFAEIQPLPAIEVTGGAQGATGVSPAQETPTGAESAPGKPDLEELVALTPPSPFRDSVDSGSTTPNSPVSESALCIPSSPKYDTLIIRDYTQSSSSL
- method notes: Positive allosteric modulation at rat mGluR5 expressed in HEK293 cells by calcium mobilization assay
outcome measure: EC50 (nM)
Field format: number, assumed nM, no unit text.

Worked examples, 4 compounds total:
sample_smiles=Cc1nc(N2CCc3nc(COc4ccccc4)cn3C2=O)ccc1F target_system="Metabotropic glutamate receptor 5 (Rattus norvegicus)" outcome_measure=EC50 numeric_value=183
sample_smiles=Cc1ccc(-n2ccc3nc(COc4ccccc4)cn3c2=O)nc1 target_system="Metabotropic glutamate receptor 5 (Rattus norvegicus)" outcome_measure=EC50 numeric_value=2000
sample_smiles=O=c1n(-c2ccc(F)cn2)ccc2nc(COc3ccccc3)cn12 target_system="Metabotropic glutamate receptor 5 (Rattus norvegicus)" outcome_measure=EC50 numeric_value=587
sample_smiles=Cc1ccnc(-n2ccc3nc(COc4ccccc4)cn3c2=O)c1 target_system="Metabotropic glutamate receptor 5 (Rattus norvegicus)" outcome_measure=EC50 numeric_value=5100

Input: Returns the measured EC50 for the input compound. Input: Cc1cccc(OCc2cn3c(n2)CCN(c2ccc(F)cc2)C3=O)c1
Output: 285

Input: Returns the measured EC50 for the input compound. Input: Cc1cc(N2CCc3nc(COc4ccccc4)cn3C2=O)ncc1F
Output: 371
